assay: Cytotoxicity against Mus musculus (mouse) EAC assessed as cell viability by trypan blue exclusion assay; type: functional, Ehrlich
RECORDED_METRIC: ED25 (mM)
Write the answer as a number in mM, unit excluded.

Some compounds with recorded ED25:
{"COMPOUND": "COc1cc(/C=C/C(=O)C(=NNc2ccc([N+](=O)[O-])cc2)C(=O)/C=C/c2ccc(O)c(OC)c2)ccc1O", "ED25 [mM]": 2.8}
{"COMPOUND": "COc1cc(C2CC(C(=NNc3ccc([N+](=O)[O-])cc3)C3=NC(=S)NC(c4ccc(O)c(OC)c4)C3)=NC(=S)N2)ccc1O (stereo not drawn)", "ED25 [mM]": 4.8}
{"COMPOUND": "COc1cc(/C=C/c2cc(/C=C/c3ccc(O)c(OC)c3)n(N=O)n2)ccc1O", "ED25 [mM]": 6.7}
{"COMPOUND": "COc1ccc(NN=C(C(=O)/C=C/c2ccc(O)c(OC)c2)C(=O)/C=C/c2ccc(O)c(OC)c2)cc1", "ED25 [mM]": 3.4}
{"COMPOUND": "COc1cc(/C=C/C(=O)/C(=N\\Nc2ccc([N+](=O)[O-])cc2)C(=O)C(Br)C(Br)c2ccc(O)c(OC)c2)ccc1O (stereo not drawn)", "ED25 [mM]": 3.2}
{"COMPOUND": "COc1cc(/C=C/c2cc(/C=C/c3ccc(O)c(OC)c3)n(NN)n2)ccc1O", "ED25 [mM]": 22.2}

Query: Report ED25 for COc1cc(C2C=C(C(=NNc3ccc([N+](=O)[O-])cc3)C3=CC(c4ccc(O)c(OC)c4)ON3)NO2)ccc1O (stereo not drawn) please.
Reply: 5.3

Query: Report ED25 for "COc1cc(/C=C/C(=O)C(=NNc2ccc(Cl)cc2)C(=O)/C=C/c2ccc(O)c(OC)c2)ccc1O" please.
Reply: 3.2
